Measured fold decrease in affinity (KD) against wild type, listed per entry.
target: T1, hen egg lysozyme (Gallus gallus (hen egg white), UniProt P00698); assay: SPR; Biacore T200; lysozyme immobilised on Sensor Chip CM5 by amine coupling to 200 RU; VHH injected 300 s, dissociation 600 s; running buffer PBST (PBS, 0.005% Tween 20); duplicate; 1:1 binding model; details: both partners purified
T1 construct: hen egg lysozyme (HEL), antigen of VHH D3-L11; also in the complex structure PDB 6JB8; also called HEL; antigen lysozyme; source: bought: Sigma-Aldrich, Cat No. L6876 (named for the ELISA)
T1 sequence (P00698 19-147): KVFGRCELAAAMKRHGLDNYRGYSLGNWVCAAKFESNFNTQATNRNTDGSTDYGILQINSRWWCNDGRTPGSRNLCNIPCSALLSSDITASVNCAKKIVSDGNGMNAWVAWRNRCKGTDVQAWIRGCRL

Binder | Observed result
D3-L11 A79M (VHH, as the VHH chain of m2 (D3-L11, PDB 6JB8) with the stated substitution; Second-round mutant; same construct as m2; also called M mutant; source: ExpiCHO, transient transfection, purified from supernatant (His Mag Sepharose excel); not shown: His6 (after a SAG tripeptide linker), C-terminal, kept) VHH: DVQLVESGGGSVQAGGSLRLSCAASGSTDSIEYMTWFRQAPGKAREGVAALYTHTGNTYYTDSVKGRFTISQDKAKNMMYLRMDSVKSEDTAIYTCGATRKYVPVRFALDQSSYDYWGQGTQVTVSS | < 10 fold
D3-L11 A79I (VHH, as the VHH chain of m2 (D3-L11, PDB 6JB8) with the stated substitution; Second-round mutant; same construct as m2; also called I mutant; source: ExpiCHO, transient transfection, purified from supernatant (His Mag Sepharose excel); not shown: His6 (after a SAG tripeptide linker), C-terminal, kept) VHH: DVQLVESGGGSVQAGGSLRLSCAASGSTDSIEYMTWFRQAPGKAREGVAALYTHTGNTYYTDSVKGRFTISQDKAKNMIYLRMDSVKSEDTAIYTCGATRKYVPVRFALDQSSYDYWGQGTQVTVSS | 1.6 fold
D3-L11 A79H (VHH, as the VHH chain of m2 (D3-L11, PDB 6JB8) with the stated substitution; Second-round mutant; same construct as m2; also called H mutant; source: ExpiCHO, transient transfection, purified from supernatant (His Mag Sepharose excel); not shown: His6 (after a SAG tripeptide linker), C-terminal, kept) VHH: DVQLVESGGGSVQAGGSLRLSCAASGSTDSIEYMTWFRQAPGKAREGVAALYTHTGNTYYTDSVKGRFTISQDKAKNMHYLRMDSVKSEDTAIYTCGATRKYVPVRFALDQSSYDYWGQGTQVTVSS | < 10 fold

// next entry
Value of fold decrease in affinity (KD) against wild type reported for the binder D3-L11 A79L (VHH, as the VHH chain of m2 (D3-L11, PDB 6JB8) with the stated substitution; Second-round mutant; same construct as m2; also called L mutant; source: ExpiCHO, transient transfection, purified from supernatant (His Mag Sepharose excel); not shown: His6 (after a SAG tripeptide linker), C-terminal, kept) VHH: DVQLVESGGGSVQAGGSLRLSCAASGSTDSIEYMTWFRQAPGKAREGVAALYTHTGNTYYTDSVKGRFTISQDKAKNMLYLRMDSVKSEDTAIYTCGATRKYVPVRFALDQSSYDYWGQGTQVTVSS is < 10 fold

Provenance of the data: paper PMC10039853
